Please provide measured Ki for the entries that follow.
biological target: human D4 receptor (D4.2 sub-type) (Homo sapiens, UniProt P21917, DEL265-296); experiment: D4 receptor binding assay, displacement of 3H-spiperone; details: 3H-spiperone 0.25 nM, membranes of HEK cells transfected with human D4.2; * = HCl salt; read-out: D4 RBA Ki
Sequence (P21917 with tags, fused parts or gaps DEL265-296): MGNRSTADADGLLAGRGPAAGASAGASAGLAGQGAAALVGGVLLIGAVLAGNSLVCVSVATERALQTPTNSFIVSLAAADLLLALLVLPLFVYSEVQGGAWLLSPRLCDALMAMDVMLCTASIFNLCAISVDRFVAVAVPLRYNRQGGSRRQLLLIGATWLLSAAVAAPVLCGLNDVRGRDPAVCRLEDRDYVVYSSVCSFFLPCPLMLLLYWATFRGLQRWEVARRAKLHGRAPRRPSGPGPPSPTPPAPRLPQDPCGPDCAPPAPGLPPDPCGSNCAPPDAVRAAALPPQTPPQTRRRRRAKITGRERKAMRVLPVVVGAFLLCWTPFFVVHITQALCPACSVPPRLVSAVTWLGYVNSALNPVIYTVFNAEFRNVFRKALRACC
# do not omit the unit; it follows the number

Known Ki results, listed for orientation:
molecule	Ki
CCCC1CCN(CCCOc2ccc(-c3noc4cc(F)ccc34)cc2)CC1 [Example 154]	11.2 nM
Fc1ccc2c(-c3ccc(OCCN4CCC5(CC4)OCCO5)cc3)noc2c1 [Example 152]	7.1 nM
O[C@H](CNCc1cccs1)COc1ccc(-c2noc3cc(F)ccc23)cc1 [Example 73]	13 nM
CC1CCN(CCCOc2ccc(-c3noc4cc(F)ccc34)cc2)CC1 [Example 153]	3.8 nM

Okay, here is my list. What is Ki for each of these?
1. Fc1ccc2c(-c3ccc(OCCCN4CCCCCCC4)cc3)noc2c1 [Example 157]
2. Fc1ccc2c(-c3ccc(OCCCN4CCCCCC4)cc3)noc2c1 [Example 156]
3. O[C@H](CNC1Cc2ccccc2C1)COc1ccc(-c2noc3cc(F)ccc23)cc1 [Example 89]
4. O[C@@H](COc1cccc(-c2noc3ncccc23)c1)CN1CCN(c2ncccn2)CC1 [Example 106]
5. O[C@H](CNCc1ccc(F)cc1)COc1ccc(-c2csc3ccccc23)cc1 [Example 96]

[A]
8.35 nM
3.88 nM
1.3 nM
8.4 nM
26 nM

Okay, here is my list. What is Ki for each of these?
1. Fc1ccc2c(-c3ccc(OCCCNCC4CCCCC4)cc3)noc2c1 [Example 158]
2. O[C@@H](COc1ccc(-c2noc3cc(F)ccc23)cc1)CN1CCC(Oc2cccc(Cl)c2)CC1 [Example 90]
3. CCCC1CCN(CCOc2ccc(-c3noc4cc(F)ccc34)cc2)CC1 [Example 146]
4. O[C@H](CNC1CCc2ccccc21)COc1ccc(-c2noc3cc(F)ccc23)cc1 (stereo partly shown) [Example 72]
5. O[C@@H](COc1ccc(-c2noc3cc(F)ccc23)cc1)CN1CCN(c2ccccn2)CC1 [Example 8]
6. CN(CCc1ccccc1)C[C@@H](O)COc1ccc(-c2noc3cc(F)ccc23)cc1 [Example 6]
7. O[C@@H](COc1cccc(-c2noc3cc(F)ccc23)c1)CN1CCN(c2ncccn2)CC1 [Example 69]

[A]
["8.42 nM", "27 nM", "34 nM", "30 nM", "9 nM", "42 nM", "14 nM"]
